Entries and their measured melting point follow.

{"MOLECULE": "C[C@H](CCC(=O)OCc1cn(CC(=O)c2ccc(Br)cc2)nn1)C1CCC2C3CCC4C[C@H](O)CC[C@]4(C)C3C[C@H](O)[C@@]21C (stereo partly drawn)", "melting point": "176 to 177 °C"}
{"MOLECULE": "Cc1ccc(C(=O)Cn2cc(COC(=O)CC[C@@H](C)C3CCC4C5CCC6C[C@H](O)CC[C@]6(C)C5C[C@H](O)[C@@]43C)nn2)cc1 (stereo partly drawn)", "melting point": "123 to 125 °C"}
{"MOLECULE": "C[C@H](CCC(=O)NCc1cn(CC(=O)c2ccccc2)nn1)C1CCC2C3CCC4C[C@H](O)CC[C@]4(C)C3C[C@H](O)[C@@]21C (stereo partly drawn)", "melting point": "135 to 136 °C"}
{"MOLECULE": "COc1ccc(C(=O)Cn2cc(CNC(=O)CC[C@@H](C)C3CCC4C5CCC6C[C@H](O)CC[C@]6(C)C5C[C@H](O)[C@@]43C)nn2)cc1 (stereo partly drawn)", "melting point": "114 to 115 °C"}
{"MOLECULE": "C[C@H](CCC(=O)OCc1cn(CC(=O)c2ccc(F)cc2)nn1)C1CCC2C3C(C[C@H](O)[C@@]21C)[C@@]1(C)CC[C@@H](O)CC1C[C@H]3O (stereo partly drawn)", "melting point": "152 to 153 °C"}
{"MOLECULE": "C[C@H](CCC(=O)OCc1cn(CC(=O)c2ccc(F)cc2)nn1)C1CCC2C3CCC4C[C@H](O)CC[C@]4(C)C3C[C@H](O)[C@@]21C (stereo partly drawn)", "melting point": "127 to 128 °C"}
